# experimentalDetails: Dissociation kinetics of Mn(II) complexes, transmetalation with Zn(II) (T2 relaxation)
# Format: physicochemical
# conditionInfo: Zn(II) transmetalation, 25 °C, 0.15 M NaCl, pH 4.9–6.0
observable: k0 (spontaneous dissociation of the nonprotonated complex)

{"structureSmilesString": "c1cc2nc(c1)CN(Cc1nc3ccccc3[nH]1)CCOCCOCCNC2", "valueMeasured": "(1.9 ± 0.3) × 10^–3 s^–1"}
{"structureSmilesString": "c1ccc(CN2CCOCCOCCNCc3cccc(n3)C2)nc1", "valueMeasured": "(1.1 ± 0.3) × 10^–3 s^–1"}
{"structureSmilesString": "O.[Mn+2].c1cc2nc(c1)CN(Cc1nc3ccccc3[nH]1)CCOCCOCCNC2", "valueMeasured": "(1.9 ± 0.3) × 10^–3 s^–1"}
{"structureSmilesString": "O.[Mn+2].c1ccc(CN2CCOCCOCCNCc3cccc(n3)C2)nc1", "valueMeasured": "(1.1 ± 0.3) × 10^–3 s^–1"}
